Sourced from patent US20230391826A1

# target under test: T1, EphA2 extracellular domain fused to the Fc portion of an antibody (EphA2-Fc)
# T1 construct: extracellular domain; Immobilized on the ELISA wells; also called immobilized EphA2
# T1 sequence (P29317 whole entry, the tested form may be a part): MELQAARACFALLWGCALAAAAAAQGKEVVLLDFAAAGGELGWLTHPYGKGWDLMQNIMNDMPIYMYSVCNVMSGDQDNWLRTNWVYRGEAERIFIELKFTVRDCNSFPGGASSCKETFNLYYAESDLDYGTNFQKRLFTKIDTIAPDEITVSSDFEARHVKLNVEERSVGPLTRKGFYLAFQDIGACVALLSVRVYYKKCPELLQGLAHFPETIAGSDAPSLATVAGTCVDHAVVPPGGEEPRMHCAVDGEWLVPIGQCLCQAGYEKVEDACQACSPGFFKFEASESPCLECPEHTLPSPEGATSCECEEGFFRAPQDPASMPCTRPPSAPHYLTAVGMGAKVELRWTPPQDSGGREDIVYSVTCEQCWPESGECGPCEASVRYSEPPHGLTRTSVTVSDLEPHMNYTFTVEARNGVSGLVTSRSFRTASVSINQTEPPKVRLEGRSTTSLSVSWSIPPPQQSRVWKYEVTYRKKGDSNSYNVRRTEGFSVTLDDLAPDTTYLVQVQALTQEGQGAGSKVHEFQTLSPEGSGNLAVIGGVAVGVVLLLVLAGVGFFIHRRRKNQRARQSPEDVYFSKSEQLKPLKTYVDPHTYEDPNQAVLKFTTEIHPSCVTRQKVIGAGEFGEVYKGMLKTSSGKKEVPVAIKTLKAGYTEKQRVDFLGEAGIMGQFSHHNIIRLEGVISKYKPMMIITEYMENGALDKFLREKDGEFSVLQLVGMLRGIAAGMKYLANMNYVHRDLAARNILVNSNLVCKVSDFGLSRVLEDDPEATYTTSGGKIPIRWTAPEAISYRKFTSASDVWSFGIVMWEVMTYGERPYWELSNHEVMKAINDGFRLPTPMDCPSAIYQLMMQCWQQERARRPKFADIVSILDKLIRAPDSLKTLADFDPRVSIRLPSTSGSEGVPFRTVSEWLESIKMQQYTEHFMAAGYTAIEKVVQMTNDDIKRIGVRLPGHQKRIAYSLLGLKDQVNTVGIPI
# assay method text: ELISA, inhibition of ephrinA5-AP binding to immobilized EphA2-Fc
Where no end group is shown, it is not given here. [ ]: non-standard residue; d: D form. The star is where a group is joined. Biotin = O=C1N[C@H]2[C@H](CS[C@H]2CCCCC(=O)*)N1; βAla = NCCC(=O)O
Friendly reminder: IC50 below 8 nM is Criterion met, at or above is Criterion not met.

- binder: "[βAla]WLAYPDSVPYRPKC (also: homodimer, disulfide at 15, other end not in the chain, C-terminally disulfide-linked homodimer made from monomer (19*); also called dimer (2); dimeric peptide (2)) [βA-WLA-YRPKC dimer (C-ter)]"
  label value: "Criterion met"
- binder: "[βAla]WLAYPDSVPYGSGC (also: homodimer, disulfide at 15, other end not in the chain, C-terminally disulfide-linked homodimer made from monomer (9*); also called dimer (1); dimeric peptide (1)) [βA-WLA-YGSGC dimer (C-ter)]"
  label value: "Criterion not met"
- binder: "YSAYPDSVPMMSGSGSK(Biotin) (Previously identified monomer, included for comparison; also called monomer (2*); 2*) [YSA-GSGSK-bio]"
  label value: "Criterion not met"
- binder: "CGAWLAYPDSVPYRPK (also: N-terminally disulfide-linked homodimer, disulfide at 1, other end not in the chain, also called dimer (5); dimeric peptide (5)) [CGA-WLA-YRPK dimer (N-ter)]"
  label value: "Criterion met"
